Data origin: patent US20080146555A1

Target: MKK6 (Homo sapiens, UniProt P52564)
Construct: purchased Upstate 14-303
Sequence (P52564 whole entry, species assumed): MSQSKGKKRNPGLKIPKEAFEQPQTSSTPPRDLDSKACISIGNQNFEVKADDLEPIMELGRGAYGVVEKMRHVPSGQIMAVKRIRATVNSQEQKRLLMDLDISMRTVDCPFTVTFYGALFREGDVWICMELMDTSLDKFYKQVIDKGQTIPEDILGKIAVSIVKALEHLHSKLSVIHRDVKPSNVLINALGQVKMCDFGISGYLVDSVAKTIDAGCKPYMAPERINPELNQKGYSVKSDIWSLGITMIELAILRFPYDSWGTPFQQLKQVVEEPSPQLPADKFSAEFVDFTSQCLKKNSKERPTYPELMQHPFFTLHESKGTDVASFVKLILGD
Experiment: MKK6 kinase assay
Type: biochemical
Conditions: kinase panel, 10 μM ATP; read-out: MAPK 6 / MKK6 IC50
Structures can show the parent of a compound that is named as a salt.
Reported IC50 values are given for each entry in this list.

compound	IC50
CC(C)N1CCN(C(=O)COc2ccc(-c3n[nH]c4c3C(=O)c3c(NC(=O)NN5CCOCC5)cccc3-4)cc2)CC1 [Compound A37]	10 to 100 nM
COCCN1CCN(Cc2ccc(-c3n[nH]c4c3C(=O)c3c(NC(=O)NN5CCOCC5)cccc3-4)cc2)CC1 [Compound B16, dihydrochloride]	< 100 nM
